tested on: DERL-7 (IL-2 2.5 ng/mL); experiment: percent inhibition of viability; higher = more inhibition; settings: 72 h; 1 nM;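 note: normalised to DMSO-only wells as negative and benzethonium chloride as positive control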
Reported percent inhibition of viability values are given for each entry in this list.
propertyName: percent inhibition of viability (%)

1) FC(F)(F)c1ccc(/C=C/c2nc(COc3ccc(CCCCn4ccnn4)cc3)co2)cc1 [Mubritinib] (max concentration tested 1000 nM) | 0.44
2) C[C@@H]1C[C@H]2O[C@@H]2/C=C\C=C\C(=O)Cc2c(Cl)c(O)cc(O)c2C(=O)O1 [Radicicol] (max concentration tested 10000 nM) | -0.88
3) O=C(O)c1ccc(Nc2ncc3c(n2)-c2ccc(Cl)cc2C(c2c(F)cccc2F)=NC3)cc1 [MLN-8054] (max concentration tested 10000 nM) | -1.42
4) COc1cc2ncnc(Nc3ccc(F)c(Cl)c3)c2cc1OCCCN1CCOCC1 [Gefitinib] (max concentration tested 10000 nM) | 3.62
5) Cc1cc(Nc2cc(CN3CCOCC3)c3nc(C)c(Cc4ccc(Cl)cc4F)n3n2)n[nH]1 [Gandotinib] (max concentration tested 10000 nM) | 2.64
6) C=CC[C@@H]1/C=C(\C)C[C@H](C)C[C@H](OC)[C@H]2O[C@@](O)(C(=O)C(=O)N3CCCC[C@H]3C(=O)O[C@H](/C(C)=C/[C@@H]3CC[C@@H](O)[C@H](OC)C3)[C@H](C)[C@@H](O)CC1=O)[C@H](C)C[C@@H]2OC [Tacrolimus] (max concentration tested 10000 nM) | -6.89
7) Cn1c(=O)c(F)c(Nc2ccc(I)cc2F)c2c(=O)n(C[C@@H](O)CO)cnc21 [TAK-733] (max concentration tested 1000 nM) | 13.4
8) CCc1c2c(nc3ccc(OC(=O)N4CCC(N5CCCCC5)CC4)cc13)-c1cc3c(c(=O)n1C2)COC(=O)[C@]3(O)CC [Irinotecan] (max concentration tested 10000 nM) | -4.74
9) Cc1[nH]c(/C=C2\C(=O)Nc3ccccc32)c(C)c1CCC(=O)O [Orantinib] (max concentration tested 10000 nM) | 1.12
10) O=C(Nc1ccc2[nH]nc(-c3ccncc3)c2c1)[C@@H]1CCN(CC(=O)N2CCN(c3ccc(-c4ncccn4)cc3)CC2)C1 (max concentration tested 10000 nM) | -1.39
11) NC(=O)c1ccc(I)c([N+](=O)[O-])c1 [Iniparib] (max concentration tested 10000 nM) | -3.85
12) COc1cc2c(cc1O)CC[C@@H]1[C@@H]2CC[C@]2(C)[C@@H](O)CC[C@@H]12 [2-methoxyestradiol] (max concentration tested 10000 nM) | -1.82
13) CN(C)C(=O)c1cc2cnc(Nc3ccc(N4CCNCC4)cn3)nc2n1C1CCCC1 [NVP-LEE011] (max concentration tested 10000 nM) | -3.18
14) CN1CCN(c2cc(C(=O)Nc3ccc4c(c3)-c3c(c(C(N)=O)nn3-c3ccc(F)cc3)CC4)c(Cl)cn2)CC1 [PHA 408] (max concentration tested 10000 nM) | -1.3
15) CCn1c(-c2nonc2N)nc2cnc(Oc3cccc(NC(=O)c4ccc(OCCN5CCOCC5)cc4)c3)cc21 (max concentration tested 10000 nM) | 1.35
16) CNC(=O)c1cccc2cc(Oc3ccnc4cc(OCC5(N)CC5)c(OC)cc34)ccc12 [Lucitanib] (max concentration tested 10000 nM) | -0.32
17) COc1ncc(-c2ccc3nccc(-c4ccnnc4)c3c2)cc1NS(=O)(=O)c1ccc(F)cc1F [Omipalisib] (max concentration tested 1000 nM) | 16.9
18) O=C(O)CC1CC(c2ccccc2)=NO1 (configuration not stated) [VGX-1027] (max concentration tested 10000 nM) | 0.25
19) COc1ccc(C[C@H](NC(=O)[C@H](C)NC(=O)CN2CCOCC2)C(=O)N[C@@H](Cc2ccccc2)C(=O)C2(C)CO2)cc1 (stereo in doubt) [ONX-0914] (max concentration tested 10000 nM) | 6.02
20) C#Cc1cccc(Nc2ncnc3cc4c(cc23)OCCOCCOCCO4)c1 [Icotinib] (max concentration tested 10000 nM) | -3.69
21) CC1(C)CCC(CN2CCN(c3ccc(C(=O)NS(=O)(=O)c4ccc(NCC5CCOCC5)c([N+](=O)[O-])c4)c(Oc4cnc5[nH]ccc5c4)c3)CC2)=C(c2ccc(Cl)cc2)C1 [Venetoclax] (max concentration tested 10000 nM) | 1.21
22) Cn1cnc2c(F)c(Nc3ccc(Br)cc3Cl)c(C(=O)NOCCO)cc21 [Selumetinib] (max concentration tested 10000 nM) | -4.06
